Hey, just so you know, these numbers are from BindingDB's records for patent US9707233.

IC50: recorded values
Target: Phosphatidylinositol 4,5-bisphosphate 3-kinase catalytic subunit delta isoform (Homo sapiens, UniProt O00329)
Sequence (O00329 whole entry): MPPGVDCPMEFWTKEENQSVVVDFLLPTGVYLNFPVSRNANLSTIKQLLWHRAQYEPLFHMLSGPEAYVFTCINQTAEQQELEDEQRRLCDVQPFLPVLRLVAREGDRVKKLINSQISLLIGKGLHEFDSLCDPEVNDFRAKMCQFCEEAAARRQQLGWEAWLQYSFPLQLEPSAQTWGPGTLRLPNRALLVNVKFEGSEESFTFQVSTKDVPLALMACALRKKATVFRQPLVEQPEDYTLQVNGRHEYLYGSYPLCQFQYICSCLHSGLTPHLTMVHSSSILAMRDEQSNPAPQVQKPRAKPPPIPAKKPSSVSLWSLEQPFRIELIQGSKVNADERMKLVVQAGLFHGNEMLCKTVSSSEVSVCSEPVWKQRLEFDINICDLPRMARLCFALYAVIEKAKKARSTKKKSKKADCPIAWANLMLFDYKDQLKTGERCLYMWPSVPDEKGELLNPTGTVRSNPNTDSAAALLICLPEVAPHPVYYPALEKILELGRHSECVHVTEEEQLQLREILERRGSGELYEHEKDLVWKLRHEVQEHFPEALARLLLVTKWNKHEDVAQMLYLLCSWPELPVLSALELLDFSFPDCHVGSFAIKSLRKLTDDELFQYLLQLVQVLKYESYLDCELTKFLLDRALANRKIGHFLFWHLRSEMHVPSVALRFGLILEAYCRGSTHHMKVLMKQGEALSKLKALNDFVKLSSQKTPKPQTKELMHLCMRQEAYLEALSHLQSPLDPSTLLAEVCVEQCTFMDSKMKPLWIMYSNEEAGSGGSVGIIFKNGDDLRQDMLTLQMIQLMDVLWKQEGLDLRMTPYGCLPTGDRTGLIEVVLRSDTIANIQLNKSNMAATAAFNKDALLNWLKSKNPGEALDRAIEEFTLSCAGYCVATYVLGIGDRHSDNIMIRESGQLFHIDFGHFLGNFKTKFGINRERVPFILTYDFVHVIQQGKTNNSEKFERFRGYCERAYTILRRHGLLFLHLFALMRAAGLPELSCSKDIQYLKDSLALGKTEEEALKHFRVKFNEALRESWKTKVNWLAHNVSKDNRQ
Assay: A2 PI3Kdelta Scintillation Proximity Assay
Conditions: pH 6.7; 25 °C

{"columns": ["molecule", "IC50"],
 "data": [
  ["COc1c(C(C)n2nc(C)c3c(N)ncnc32)cc(Cl)c(C)c1C1CN(CC(F)F)C1 (single isomer, unassigned)", "< 10 nM"]
]}

Proceeding to the next molecule to report its IC50.
Inquiry: IC50 for CCOc1c(C(C)n2nc(C)c3c(N)ncnc32)cc(Cl)c(C#N)c1C1CN(C(C)(C)C(=O)N(C)C)C1 (single isomer, unassigned) ?
Reply text: < 10 nM
